Molecular target: human ether-à-go-go-related gene (hERG) potassium channel (human);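 further: peak tail current of the secondary pulse compared with the same well before compound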
Sequence (Q12809 whole entry, looked up): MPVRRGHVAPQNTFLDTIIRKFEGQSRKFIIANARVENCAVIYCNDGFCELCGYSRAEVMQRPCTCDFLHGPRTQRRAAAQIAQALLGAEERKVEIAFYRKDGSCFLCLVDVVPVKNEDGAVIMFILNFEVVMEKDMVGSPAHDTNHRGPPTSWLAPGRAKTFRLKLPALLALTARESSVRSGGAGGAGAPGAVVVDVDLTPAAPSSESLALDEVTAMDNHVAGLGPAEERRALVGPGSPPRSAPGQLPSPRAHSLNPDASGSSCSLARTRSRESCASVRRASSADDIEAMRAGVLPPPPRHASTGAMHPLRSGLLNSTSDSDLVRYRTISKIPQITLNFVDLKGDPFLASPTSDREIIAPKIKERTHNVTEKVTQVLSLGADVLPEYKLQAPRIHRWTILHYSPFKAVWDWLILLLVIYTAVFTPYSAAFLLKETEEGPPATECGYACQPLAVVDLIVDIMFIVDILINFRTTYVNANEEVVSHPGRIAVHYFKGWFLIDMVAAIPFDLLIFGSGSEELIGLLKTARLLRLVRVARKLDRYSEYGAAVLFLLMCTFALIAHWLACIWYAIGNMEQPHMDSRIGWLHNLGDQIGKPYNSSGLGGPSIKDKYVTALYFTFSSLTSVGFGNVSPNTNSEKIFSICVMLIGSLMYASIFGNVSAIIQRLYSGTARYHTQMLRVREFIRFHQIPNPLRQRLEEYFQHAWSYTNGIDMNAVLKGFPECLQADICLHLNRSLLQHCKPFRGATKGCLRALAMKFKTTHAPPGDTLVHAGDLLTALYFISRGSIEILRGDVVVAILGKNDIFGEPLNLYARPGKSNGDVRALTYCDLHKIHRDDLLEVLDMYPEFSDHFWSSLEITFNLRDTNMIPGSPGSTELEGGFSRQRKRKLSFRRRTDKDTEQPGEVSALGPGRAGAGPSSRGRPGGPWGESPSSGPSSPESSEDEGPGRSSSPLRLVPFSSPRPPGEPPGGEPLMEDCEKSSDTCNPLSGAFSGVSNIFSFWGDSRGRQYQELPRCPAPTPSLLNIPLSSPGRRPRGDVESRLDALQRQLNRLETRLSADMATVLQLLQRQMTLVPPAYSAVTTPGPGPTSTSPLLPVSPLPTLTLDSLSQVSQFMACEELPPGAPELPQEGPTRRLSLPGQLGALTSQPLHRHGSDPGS
Test: primary screen, population patch clamp on CHO cells stably expressing hERG; higher = less effect of the substance
Hit rate of the full screen: of about 310,000 compounds, about 14,000 (4.5%) showed an effect of 50% or more. Effects have a minus sign here. The sample holds strong results, similar compounds and a random draw of the others, so the mix is not that of the screen.
Quantity name: hERG current change (%, negative = inhibition) at 10uM

# Compound, Test value
rows = [
    ("CC(=Nc1ccc2c(c1)nc(CO)n2C)C1=C(O)CC(C)(C)CC1=O", "2.09%"),
    ("O=C(Nc1ccc2oc(-c3cccnc3)nc2c1)c1ccc2c(c1)OCCO2", "20.2%"),
    ("O=C(Cc1ncn[nH]1)NCCc1ccccc1", "-3.77%"),
    ("COc1cccc(NC(=O)CSc2nc3ccccc3n2C)c1", "-16.5%"),
    ("C=CCn1c(COc2ccc(F)cc2)nnc1SCC(=O)N1CC(=O)Nc2ccccc21", "-33%"),
    ("N#Cc1cnn2c(-c3ccccc3)ccnc12", "2.49%"),
    ("Cc1nc(SCCOc2ccccc2F)[nH]c(=O)c1Cc1ccccc1", "46.9%"),
    ("Cc1cc(NC(=O)CCC(=O)N(Cc2ccccc2)C(C(=O)NC2CCCC2)c2ccco2)no1 (stereo not drawn)", "-21.8%"),
]

// below: hERG current change (%, negative = inhibition) at 10uM requested for another compound
Please fill in: hERG current change (%, negative = inhibition) at 10uM reported for "O=C(O)c1cccnc1Nc1ccc(Cl)cc1" = 25%
